Experiment Summary: Half-life for the conversion of compound to the corresponding N-peptide under pseudo physiological conditions (0.04 M phosphate, pH 7.4 and 37 degree C)
Type: ADME
Assay Setup: phosphate buffer
Outcome Measure: half-life (h)
Only the number, expressed in h, is required.

# lookup: half-life of CCC(NC(=O)C(NC)C(OC(=O)C(NC(=O)OCc1ccccc1)C(C)C)C(C)C)C(=O)NCCc1ccc(OC)c(OC)c1 (stereo not drawn)
1.58

# lookup: half-life of CCC(NC(=O)C(N)C(OC(=O)C(NC(=O)OCc1ccccc1)C(C)C)C(C)C)C(=O)NCCc1ccc(OC)c(OC)c1 (stereo not drawn)
0.0667

# lookup: half-life of CNC1C(=O)NCCCCN(C)C(C(C)C)C(=O)OC1C(C)C (stereo not drawn)
6.17
